experiment: Inhibition of porcine brain tubulin polymerization after 30 mins by spectrophotometric method; set-up: species or system Sus scrofa
TEST_READOUT: IC50 (µM)

Take a look at these entries with their results.
| COMPOUND | IC50 [µM] |
| --- | --- |
| COc1ccc(/C=C/[S+]([O-])c2cc(OC)c(OC)c(OC)c2)cc1O (stereo unspecified) | 7.18 |
| COc1ccc(/C=C(\Cl)[S+]([O-])c2cc(OC)c(OC)c(OC)c2)cc1O (stereo unspecified) | 3.83 |
| COc1ccc(/C=C\c2cc(OC)c(OC)c(OC)c2)cc1O | 2.17 |
| COc1ccc(/C=C/S(=O)(=O)c2cc(OC)c(OC)c(OC)c2)cc1N | 4.25 |

P: COc1ccc(/C=C/S(=O)(=O)c2cc(OC)c(OC)c(OC)c2)cc1O
Q: COc1ccc(/C=C/C(=O)c2cc(OC)c(OC)c(OC)c2)cc1O
## Input Identify the entry with the larger IC50. Options: P and Q Kindly state the label of the option you pick.
## Output P
(P: 8.23 µM, Q: 3.69 µM)

meta.source: ChEMBL document CHEMBL4270633
